biological target: USP10 (UniProt Q14694); assay: log2 ratio of Biotin-Ahx-Ub-VS probe labelling (fragment/DMSO); higher = less target engagement (more negative = stronger competition), active = hit call of the paper (q ≤ 0.05, log2 ratio ≤ -1); settings: compound concentration: 200 uM; treatment time: 3 h
Sequence (Q14694 whole entry, the tested form may be a part): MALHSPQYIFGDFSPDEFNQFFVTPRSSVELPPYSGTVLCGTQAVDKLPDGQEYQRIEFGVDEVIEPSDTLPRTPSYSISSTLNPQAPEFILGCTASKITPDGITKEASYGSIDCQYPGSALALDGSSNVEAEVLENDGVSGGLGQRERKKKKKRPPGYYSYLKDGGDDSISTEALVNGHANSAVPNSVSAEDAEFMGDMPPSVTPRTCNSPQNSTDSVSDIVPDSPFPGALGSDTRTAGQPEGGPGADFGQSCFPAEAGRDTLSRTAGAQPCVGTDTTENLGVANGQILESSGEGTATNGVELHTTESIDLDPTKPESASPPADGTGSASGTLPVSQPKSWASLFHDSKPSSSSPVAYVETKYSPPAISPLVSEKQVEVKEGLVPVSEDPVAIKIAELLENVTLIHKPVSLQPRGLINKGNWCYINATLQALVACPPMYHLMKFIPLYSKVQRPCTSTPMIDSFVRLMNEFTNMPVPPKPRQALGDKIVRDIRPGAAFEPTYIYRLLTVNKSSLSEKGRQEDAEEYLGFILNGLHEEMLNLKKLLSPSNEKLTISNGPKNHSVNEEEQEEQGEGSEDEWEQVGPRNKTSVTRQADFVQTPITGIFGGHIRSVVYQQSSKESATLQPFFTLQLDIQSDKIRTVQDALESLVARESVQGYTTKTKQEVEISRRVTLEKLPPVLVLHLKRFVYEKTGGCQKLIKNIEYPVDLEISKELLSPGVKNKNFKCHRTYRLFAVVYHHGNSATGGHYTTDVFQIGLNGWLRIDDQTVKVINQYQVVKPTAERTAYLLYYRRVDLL
# if value of log2 ratio of Biotin-Ahx-Ub-VS probe labelling reaches -0.06, tag Yes; if it stays below, tag No

{"COMPOUND": "O=C(CCl)NC(Cn1ccccc1=O)c1ccccc1 (stereo not drawn)", "ASSIGNED CLASS": "Yes"}
{"COMPOUND": "O=C(CCl)NCc1ccc(N2CCOCC2)nc1", "ASSIGNED CLASS": "No"}
{"COMPOUND": "Cc1cnc2[nH]cc(CCNC(=O)CCl)c2c1", "ASSIGNED CLASS": "No"}
{"COMPOUND": "Cc1cccc(NC(=O)[C@@H]2CCCN2C(=O)CCl)n1", "ASSIGNED CLASS": "No"}
{"COMPOUND": "O=C(CCl)NC1(c2ccc3c(c2)OCCO3)CCCC1", "ASSIGNED CLASS": "No"}
{"COMPOUND": "C[C@H]1CN(C(=O)CCl)CCN1C(=O)c1cnn(C)c1.Cl", "ASSIGNED CLASS": "Yes"}
{"COMPOUND": "Cc1ccc(CC(NC(=O)CCl)c2ccccn2)cc1.Cl (stereo not drawn)", "ASSIGNED CLASS": "Yes"}
{"COMPOUND": "Cc1nc(CN2CCN(C(=O)CCl)CC2)cs1", "ASSIGNED CLASS": "No"}
{"COMPOUND": "O=C(CCl)N1CCCN(C(=O)c2ccc(Cl)cc2)CC1", "ASSIGNED CLASS": "Yes"}
{"COMPOUND": "COc1ccccc1C(C)NC(=O)CCl (stereo not drawn)", "ASSIGNED CLASS": "No"}
{"COMPOUND": "COc1ccc(CN(C)C(=O)CCl)cc1", "ASSIGNED CLASS": "No"}
{"COMPOUND": "CC(NC(=O)CCl)c1noc(Cc2ccccc2)n1 (stereo not drawn)", "ASSIGNED CLASS": "Yes"}
{"COMPOUND": "Cl.O=C(CN1CCN(C(=O)CCl)CC1)Nc1ccc(F)cc1", "ASSIGNED CLASS": "No"}
{"COMPOUND": "Cl.O=C(CCl)NCc1ccnc(Oc2ccccc2F)c1", "ASSIGNED CLASS": "No"}
{"COMPOUND": "Cc1cc(CC(C)NC(=O)CCl)n[nH]1 (stereo not drawn)", "ASSIGNED CLASS": "Yes"}
{"COMPOUND": "Cc1ccc(CNC(=O)CCl)nc1C.Cl", "ASSIGNED CLASS": "No"}
{"COMPOUND": "O=C(CCl)N1CCCC1c1ccsc1 (stereo not drawn)", "ASSIGNED CLASS": "No"}
{"COMPOUND": "Cc1noc(C)c1CNC(=O)CCl", "ASSIGNED CLASS": "No"}
{"COMPOUND": "Cl.O=C(CCl)NCc1cc2c(nc1O)CCCC2", "ASSIGNED CLASS": "No"}
{"COMPOUND": "O=C(CCl)N1CCC(C(=O)N2CCCCCC2)CC1", "ASSIGNED CLASS": "Yes"}
{"COMPOUND": "O=C(CCl)N1CCC(O)(Cc2ccc(F)cc2)C1 (stereo not drawn)", "ASSIGNED CLASS": "No"}
{"COMPOUND": "O=C(O)C1Cc2ccccc2CN1C(=O)CCl (stereo not drawn)", "ASSIGNED CLASS": "No"}
{"COMPOUND": "O=C(CCl)NCCc1ccc(F)cc1", "ASSIGNED CLASS": "No"}
{"COMPOUND": "O=C(CCl)N1CCC(c2nc3ccccc3o2)CC1", "ASSIGNED CLASS": "No"}
{"COMPOUND": "CC(NC(=O)CCl)c1cnn(C2CC2)c1 (stereo not drawn)", "ASSIGNED CLASS": "No"}
{"COMPOUND": "O=C(CCl)Nc1nnc(CC(F)(F)F)o1", "ASSIGNED CLASS": "Yes"}
{"COMPOUND": "O=C(CCl)Nc1cc2c(cc1Cl)OCCO2", "ASSIGNED CLASS": "Yes"}
{"COMPOUND": "CC1CCc2onc(CNC(=O)CCl)c2C1 (stereo not drawn)", "ASSIGNED CLASS": "Yes"}

src = the supplement of paper PMC11732987
